Tested system: NAMPT (human, recombinant, C-terminally His-tagged) (Homo sapiens, UniProt P43490)
Sequence (P43490 whole entry): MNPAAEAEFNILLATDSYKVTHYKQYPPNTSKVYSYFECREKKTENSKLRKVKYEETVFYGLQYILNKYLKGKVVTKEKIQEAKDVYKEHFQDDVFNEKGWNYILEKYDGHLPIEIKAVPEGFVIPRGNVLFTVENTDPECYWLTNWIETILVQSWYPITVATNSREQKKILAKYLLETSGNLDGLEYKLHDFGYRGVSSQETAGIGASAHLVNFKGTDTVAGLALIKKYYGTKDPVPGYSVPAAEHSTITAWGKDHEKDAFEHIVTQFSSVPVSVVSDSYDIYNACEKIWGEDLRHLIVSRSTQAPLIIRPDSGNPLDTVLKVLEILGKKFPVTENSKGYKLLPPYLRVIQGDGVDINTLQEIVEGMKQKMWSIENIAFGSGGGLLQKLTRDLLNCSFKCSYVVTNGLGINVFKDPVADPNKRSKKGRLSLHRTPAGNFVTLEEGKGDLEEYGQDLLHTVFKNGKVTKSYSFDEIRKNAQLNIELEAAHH
Test description: Time-Resolved Fluorescence Resonance Energy Transfer (TR-FRET) Binding Assay of NAMPT
Run conditions: without substrates; 6.8 nM NAMPT, 200 nM probe, 3 hours equilibration
Measured attribute: log10(IC50) (log10 of the value in µM)
Kindly note that the scale is log10 and the underlying IC50 is in µM.

Look over these answered cases.
Compound	log10(IC50)
CCC(C)(C)C(=O)N1CC(c2ccc(C(=O)NCc3ccn4ccnc4c3)cc2)C1	-0.76
O=C(NCc1cn2ccnc2cn1)c1ccc(C2CCN(C(=O)c3ccccc3F)CC2)cc1	-2.11
O=C(NCc1ccn2ccnc2c1)c1ccc(C2CCN(C(=O)CC3CC3)C2)cc1 (stereo not shown)	-0.37
CC(C)(O)C(=O)N1CCC(c2ccc(NC(=O)NCc3ccn4ccnc4c3)cc2)CC1	-1.79
CC(C)C(=O)N1CCC(c2ccc(C(=O)NCc3ccn4ccnc4c3)s2)CC1	-1.58

Data request, read-out log10(IC50), for CC(C)OCCNC(=O)N(CC1CCCO1)c1ncc(C(=O)NCc2ccc3nccn3c2)s1 (stereo not shown)
-0.61

Data request, read-out log10(IC50), for O=C(NCc1ccn2ccnc2c1)c1ccc(O[C@H]2CCN(C(=O)CC3CC3)C2)cc1
0.67

Data request, read-out log10(IC50), for CC(C)Cn1cc(-c2ccc(C(=O)NCc3ccc4ncnn4c3)o2)cn1
-0.30

Data request, read-out log10(IC50), for O=C(NCc1ccn2ccnc2c1)c1ccc(C2CN(C(=O)c3ccc(Cl)cc3)C2)cc1
-1.04

Data request, read-out log10(IC50), for O=C(NCc1ccn2ccnc2c1)Nc1ccc(C2CCN(C(=O)c3ccccc3F)CC2)cc1
-2.20

Data request, read-out log10(IC50), for O=C(NCc1ccn2ccnc2c1)c1ccc(OC2CCN(C(=O)CN3CCOCC3)CC2)cc1
0.92

Data request, read-out log10(IC50), for Cn1cccc1C(=O)N1CCC(c2ccc(C(=O)NCc3ccn4ccnc4c3)cc2)C1 (stereo not shown)
-0.55

Data request, read-out log10(IC50), for O=C(NCc1ccn2ccnc2c1)c1ccc(-c2cnn(CC3CCCOC3)c2)o1 (stereo not shown)
-1.20

Data request, read-out log10(IC50), for CC(C)(C)OC(=O)N1CC[C@@H](Oc2ccc(C(=O)NCc3ccn4ccnc4c3)cc2)C1
0.20

Data request, read-out log10(IC50), for COCCC(=O)N(CC1CCCO1)c1ncc(C(=O)NCc2ccn3ccnc3c2)s1 (stereo not shown)
-0.31

---

Tested system: NAMPT (human, recombinant, C-terminally His-tagged) (Homo sapiens)
Test description: Time-Resolved Fluorescence Resonance Energy Transfer (TR-FRET) Binding Assay of NAMPT
Run conditions: without substrates; 6.8 nM NAMPT, 200 nM probe, 3 hours equilibration
Entries whose IC50 is below 80 nM take TRUE; entries at or above 80 nM take FALSE.

Molecule	Tested system	Label
CS(=O)(=O)N1CC(c2ccc(C(=O)NCc3ccn4ccnc4c3)cc2)C1	NAMPT (human, recombinant, C-terminally His-tagged) (Homo sapiens)	FALSE

Criterion: IC50 strictly below 80 nM. Is it met by CC(C)(O)C(=O)N1CC=C(c2ccc(NC(=O)Nc3ccc4nccn4c3)cc2)CC1 ?
FALSE

Criterion: IC50 strictly below 80 nM. Is it met by CC(C)CCNC(=O)c1ccc(NC(=O)Nc2ccc3nccn3c2)cc1 ?
FALSE

Criterion: IC50 strictly below 80 nM. Is it met by Cn1cccc1CCC(=O)N(CC1CCCO1)c1ncc(C(=O)NCc2ccc3nccn3c2)s1 (centres unmarked) ?
FALSE

Criterion: IC50 strictly below 80 nM. Is it met by O=C(NCc1ccn2ccnc2c1)Nc1ccc(C2CN(C(=O)c3ccccc3)C2)cc1 ?
TRUE

Criterion: IC50 strictly below 80 nM. Is it met by CC(C)(C)C(=O)N1CCC(c2ccc(C(=O)NCc3ccn4ccnc4c3)cc2)CC1 ?
FALSE

Criterion: IC50 strictly below 80 nM. Is it met by CCCC(=O)N1CCC(c2ccc(NC(=O)NCc3ccn4ccnc4c3)cc2)CC1 ?
TRUE

Criterion: IC50 strictly below 80 nM. Is it met by CC[C@H](C)C(=O)N1CCC(c2ccc(NC(=O)NCc3ccn4ccnc4c3)cc2)C1 (some centres unmarked) ?
FALSE
